Biological target: Neuropeptide Y receptor type 5 (Rattus norvegicus, UniProt Q63634)
Sequence (Q63634 whole entry): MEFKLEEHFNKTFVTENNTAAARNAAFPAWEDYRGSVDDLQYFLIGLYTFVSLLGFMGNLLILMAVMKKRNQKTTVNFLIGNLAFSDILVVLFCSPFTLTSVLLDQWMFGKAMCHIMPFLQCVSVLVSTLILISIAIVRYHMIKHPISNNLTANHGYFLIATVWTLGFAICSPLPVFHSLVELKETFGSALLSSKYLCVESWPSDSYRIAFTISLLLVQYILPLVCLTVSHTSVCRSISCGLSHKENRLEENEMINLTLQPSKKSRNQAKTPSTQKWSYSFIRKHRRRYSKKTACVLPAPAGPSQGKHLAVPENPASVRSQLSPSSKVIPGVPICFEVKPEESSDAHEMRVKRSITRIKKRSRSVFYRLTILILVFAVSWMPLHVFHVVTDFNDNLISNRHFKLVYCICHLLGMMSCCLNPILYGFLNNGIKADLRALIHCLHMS
Test: Inhibition of [125I]PYY binding to the rat NPY Y5 receptor in C6 cells
reported_metric: IC50

> print(dat)
                                    compound  endpoint.result
 1  O=C(CN1CCC(N2C(=O)OCc3cc(Cl)ccc32)CC1)Nc1ccc2c(c1)C(=O)c1ccccc1-2            69 nM
 2  COc1cccc2c1N(C1CCN(CC(=O)Nc3ccc4oc5ccccc5c4c3)CC1)C(=O)OC2          55.7 nM
 3  Cc1ccc2c(c1)COC(=O)N2C1CCN(CC(=O)Nc2ccc(Oc3ccccc3)cc2)CC1           104 nM
 4  O=C(CN1CCC(N2C(=O)OCc3ccccc32)CC1)Nc1ccc(Cl)cc1           300 nM
 5  O=C(CN1CCC(N2C(=O)OCc3cc(Cl)ccc32)CC1)Nc1ccccc1C(=O)c1ccccc1        > 1000 nM
 6  O=C(CN1CCC(N2C(=O)OCc3cc(Cl)ccc32)CC1)Nc1ccc(Oc2ccccc2)cc1          60.7 nM
 7  CC(=O)c1ccc(NC(=O)CN2CCC(N3C(=O)OCc4cc(C)ccc43)CC2)cc1            26 nM
 8  CCn1c2ccccc2c2cc(NC(=O)CN3CCC(N4C(=O)OCc5cccc(C)c54)CC3)ccc21            50 nM
 9  O=C(CN1CCC(N2C(=O)OCc3cc(Cl)ccc32)CC1)Nc1ccc(C2CCCCC2)cc1           112 nM
10  N#Cc1ccc(NC(=O)CN2CCC(N3C(=O)OCc4cc(Cl)ccc43)CC2)cc1           199 nM
11  Cn1c2ccccc2c2cc(NC(=O)CN3CCC(N4C(=O)OCc5ccccc54)CC3)ccc21           9.6 nM
12  O=C(CN1CCC(N2C(=O)OCc3ccccc32)CC1)Nc1ccc(Oc2ccccc2)cc1            20 nM
13  COC(=O)c1ccccc1NC(=O)CN1CCC(N2C(=O)OCc3cccc(C)c32)CC1        > 1000 nM
14  O=C(CN1CCC(N2C(=O)OCc3ccccc32)CC1)Nc1ccc2c(c1)-c1ccccc1C2O (stereo not given)           8.7 nM
15  Cc1cccc2c1N(C1CCN(CC(=O)Nc3ccc4c(c3)-c3ccccc3C4O)CC1)C(=O)OC2 (stereo not given)            30 nM
16  Cc1cccc2c1N(C1CCN(CC(=O)Nc3ccccc3)CC1)C(=O)OC2        > 1000 nM
17  COC(=O)c1ccccc1NC(=O)CN1CCC(N2C(=O)OCc3cc(C)ccc32)CC1        > 1000 nM
18  Cc1cccc2c1N(C1CCN(CC(=O)Nc3ccc(Cl)cc3)CC1)C(=O)OC2        > 1000 nM
19  CC(=O)c1ccc(NC(=O)CN2CCC(N3C(=O)OCc4ccccc43)CC2)cc1          17.3 nM
20  O=C(CN1CCC(N2C(=O)OCc3ccccc32)CC1)Nc1ccccc1C(=O)c1ccccc1        > 1000 nM

====

Molecular target: Neuropeptide Y receptor type 5 (Rattus norvegicus, UniProt Q63634)
Experiment: Inhibition of [125I]PYY binding to the rat NPY Y5 receptor in C6 cells
reported_metric: log10 IC50 (log10 of the value in nM)

> print(dat)
                                   molecule                         system.under.test  endpoint.result
1  O=C(CN1CCC(N2C(=O)OCc3cc(Cl)ccc32)CC1)Nc1ccc2c(c1)-c1ccccc1C2=O  Neuropeptide Y receptor type 5 (Rattus norvegicus, UniProt Q63634)             1.40
2  Cc1cccc2c1N(C1CCN(CC(=O)Nc3ccc4c(c3)-c3ccccc3C4=O)CC1)C(=O)OC2  Neuropeptide Y receptor type 5 (Rattus norvegicus, UniProt Q63634)             1.70
3  O=C(CN1CCC(N2C(=O)OCc3ccccc32)CC1)Nc1ccc2c(c1)-c1ccccc1C2=O  Neuropeptide Y receptor type 5 (Rattus norvegicus, UniProt Q63634)             1.37
4  CCn1c2ccccc2c2cc(NC(=O)CN3CCC(N4C(=O)OCc5cc(Cl)ccc54)CC3)ccc21  Neuropeptide Y receptor type 5 (Rattus norvegicus, UniProt Q63634)             2.00
5  N#Cc1ccc(NC(=O)CN2CCC(N3C(=O)OCc4ccccc43)CC2)cc1  Neuropeptide Y receptor type 5 (Rattus norvegicus, UniProt Q63634)             2.12
6  O=C(CN1CCC(N2C(=O)OCc3cc(Cl)ccc32)CC1)Nc1ccc2c(c1)-c1ccccc1C2O (centres undefined)  Neuropeptide Y receptor type 5 (Rattus norvegicus, UniProt Q63634)             0.90
